test system: MOLT-4 leukemia; assay: NCI tumour cell line growth inhibition, 48 h
RECORDED ENDPOINT: GI50

> print(dat)
                                  structure    tested.target  recorded.endpoint  test.result
1  CN1CCN(C(=O)COc2ccc(C34CC5CC(CC(C5)C3)C4)cc2)CC1  MOLT-4 leukemia               GI50     13200 nM
2      NC(=S)N/N=C\c1nccc2c(C(F)(F)F)cccc12  MOLT-4 leukemia               GI50       355 nM
3  C#Cc1cccc(Nc2nc3cc([N+](=O)[O-])ccc3nc2Nc2ccc(O)cc2)c1  MOLT-4 leukemia               GI50      1200 nM
4  C=C1C(=O)O[C@H]2[C@H]1CC/C(CNC(=O)c1cc3ccccc3[nH]1)=C\CC[C@@]1(C)O[C@@H]21  MOLT-4 leukemia               GI50      1600 nM
5  Nc1nc2[nH]cc(CCc3ccc(C(=O)N[C@@H](CCC(=O)O)C(=O)O)cc3)c2c(=O)[nH]1  MOLT-4 leukemia               GI50       530 nM

* * *

test system: SK-OV-3 ovarian; experiment: NCI tumour cell line growth inhibition, 48 h
RECORDED ENDPOINT: TGI

> print(dat)
                                    molecule  test.result
 1  CC1(C)[C@@H](NOCCCN)CC[C@]2(C)[C@H]3C(=O)C=C4[C@@H]5C[C@](C)(C(=O)O)CC[C@]5(C)CC[C@@]4(C)[C@]3(C)CC[C@@H]12        67 µM
 2  Cc1cc(OC(=O)Nc2cccc3ccccc23)c(C(C)C)cc1C(=S)Nc1ccccc1      51.7 µM
 3  CNC(=O)NCCCC(NC(C)=O)C(=O)NCc1ccccc1 (stereo unspecified)     > 100 µM
 4  Fc1cc(-c2nnc3n2N=C(c2ccc(Cl)cc2)CS3)c(Cl)cc1Cl      51.5 µM
 5  CON(C)C(=O)C(C)N(Cc1ccccc1)Cc1ccccc1 (stereo unspecified)     > 100 µM
 6  O=C1SC(SCc2ccccc2)=NC12CC2c1ccccc1 (stereo unspecified)     > 100 µM
 7  S=P1(Oc2ccccc2)NNP2(=NP(N3CC3)(N3CC3)=NP(N3CC3)(N3CC3)=N2)NN1 (stereo unspecified)     > 100 µM
 8  O=C1NC(=NCc2ccccc2)S/C1=C\c1ccc2ncccc2c1      > 25 µM
 9  Cc1ccc(C(=O)OC(C(=O)O)C(OC(=O)c2ccc(C)cc2)C(=O)O)cc1 (stereo unspecified) (tested in a mixture with another compound)      28.2 µM
10                             O=C(O)C(Cl)Cl   > 10000 µM
11  COc1ccc(C2c3cc4c(cc3OC3(OC)COC(=O)C23)OCO4)c(OC)c1 (stereo unspecified)      > 86 µM
12  CCOC(=O)n1cc(C2=C(c3ccc(OC)c(OC)c3)COC2=O)c2ccccc21     > 100 µM
13  C[N+]12C=CC=C1C(N1CCCC1)c1scc(-c3ccc(Br)cc3)c12 (stereo unspecified)     > 100 µM
14  COC(=O)[C@]1(C)CCC[C@@]2(C)C1CC[C@@]13C=C(C(C)C)[C@@H](CC1=O)CC23 (stereo partly specified)     > 100 µM
15  CCOC(=O)/C(C#N)=C/c1coc2cc(C)cc(C)c2c1=O     > 100 µM
16                O=c1c2cccnc2ncn1CCN1CCCCC1     > 100 µM
17  O=C(Nc1nc(=S)[nH][nH]1)C(=O)C(C(=O)c1ccc2ccccc2c1)C1OC(=O)c2ccccc21 (stereo unspecified)     > 100 µM
18  O=c1[nH]c2cc(Cl)ccc2nc1/C(=N\Nc1ccccc1)C(O)c1ccc(Cl)c(Cl)c1 (stereo unspecified)     > 100 µM
19  CC[C@@H](c1ccc(O)c(O)c1)[C@@H](CC)c1ccc(O)c(O)c1      77.9 µM
20       CC(N)/C(N)=N/O (stereo unspecified)     > 100 µM
21  COc1ccc(C(c2cc(OC)c(OC)c(OC)c2)n2cncn2)cc1O (stereo unspecified)     > 100 µM
